Origin of values: paper PMC12621043

assay system: CHEK2A (Homo sapiens, UniProt O96017)
Construct: purchased in-house DSF kinase panel (SGC-style construct names; the trailing letter is the construct ID)
Sequence (O96017 210-531): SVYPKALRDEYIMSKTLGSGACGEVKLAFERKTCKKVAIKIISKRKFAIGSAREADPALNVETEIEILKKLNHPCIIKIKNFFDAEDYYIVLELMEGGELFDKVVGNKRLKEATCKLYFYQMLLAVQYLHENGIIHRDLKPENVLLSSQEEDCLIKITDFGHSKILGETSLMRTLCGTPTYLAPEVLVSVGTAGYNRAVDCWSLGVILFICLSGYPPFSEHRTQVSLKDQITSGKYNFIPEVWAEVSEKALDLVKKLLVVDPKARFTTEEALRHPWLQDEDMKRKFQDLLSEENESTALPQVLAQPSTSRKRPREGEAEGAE
assay method text: DSF Tm panel
Assay type: binding
measurement setup: 10 μM compound
The following molecules are shown together with reported ΔTm at 10 µM values.

[
  {
    "smiles code": "COc1ccccc1CNC(=O)Nc1ccc2cc1OCCOCCNc1ccn3ncc-2c3n1",
    "assay system": "CHEK2A (Homo sapiens, UniProt O96017)",
    "ΔTm at 10 µM": "5.8 °C"
  },
  {
    "smiles code": "O=C(NCc1ccc(C(F)(F)F)cc1)Nc1ccc2cc1OCCOCCNc1ccn3ncc-2c3n1",
    "assay system": "CHEK2A (Homo sapiens, UniProt O96017)",
    "ΔTm at 10 µM": "7.7 °C"
  },
  {
    "smiles code": "C[C@H](NC(=O)Nc1ccc2cc1OCCOCCNc1ccn3ncc-2c3n1)c1ccccc1",
    "assay system": "CHEK2A (Homo sapiens, UniProt O96017)",
    "ΔTm at 10 µM": "6.3 °C"
  },
  {
    "smiles code": "COc1ccc(CNC(=O)Nc2ccc3cc2OCCOCCNc2ccn4ncc-3c4n2)cc1",
    "assay system": "CHEK2A (Homo sapiens, UniProt O96017)",
    "ΔTm at 10 µM": "7 °C"
  }
]

###

assay system: STK10 (Homo sapiens, UniProt O94804)
Construct: purchased in-house DSF kinase panel (SGC-style construct names; the trailing letter is the construct ID)
Sequence (O94804 18-317 limits assumed): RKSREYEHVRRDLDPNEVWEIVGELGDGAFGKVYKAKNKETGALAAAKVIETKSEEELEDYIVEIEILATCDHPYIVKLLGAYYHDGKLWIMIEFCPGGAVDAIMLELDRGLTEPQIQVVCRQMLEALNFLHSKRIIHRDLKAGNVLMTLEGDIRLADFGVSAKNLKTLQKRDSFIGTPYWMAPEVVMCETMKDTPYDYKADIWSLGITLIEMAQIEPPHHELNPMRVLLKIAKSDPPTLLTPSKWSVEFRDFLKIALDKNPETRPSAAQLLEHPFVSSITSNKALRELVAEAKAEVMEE
assay method text: PhosphoSens in vitro activity assay
Type: biochemical
measurement setup: ATP 160 μM
pIC50: −log10 of the molar value.
The following compounds are shown together with reported pIC50 values.

[
  {
    "compound": "COc1ccc(CNC(=O)Nc2ccc3cc2OCCOCCNc2ccn4ncc-3c4n2)cc1 [compound 31]",
    "pIC50": 5.56
  },
  {
    "compound": "COc1cc(CNC(=O)Nc2ccc3cc2OCCOCCNc2ccn4ncc-3c4n2)ccc1F [compound 33]",
    "pIC50": 5.63
  },
  {
    "compound": "Cc1cc(Br)ccc1CNC(=O)Nc1ccc2cc1OCCOCCNc1ccn3ncc-2c3n1 [compound 24]",
    "pIC50": 5.34
  },
  {
    "compound": "COc1ccc(CNC(=O)Nc2ccc3cc2OCCOCCNc2ccn4ncc-3c4n2)cc1F [compound 32]",
    "pIC50": 5.48
  },
  {
    "compound": "O=C(NCc1ccc(Cl)cc1F)Nc1ccc2cc1OCCOCCNc1ccn3ncc-2c3n1 [compound 21]",
    "pIC50": 5.58
  },
  {
    "compound": "O=C(NCc1ccccc1Cl)Nc1ccc2cc1OCCOCCNc1ccn3ncc-2c3n1 [compound 17]",
    "pIC50": 5.82
  },
  {
    "compound": "O=C(NCc1cccc(Cl)c1)Nc1ccc2cc1OCCOCCNc1ccn3ncc-2c3n1 [compound 18]",
    "pIC50": 5.59
  }
]

###

The following compounds are shown together with reported ΔTm at 10 µM values.
assay system: STK3 (STK3A) (Homo sapiens, UniProt Q13188)
Construct: purchased in-house DSF kinase panel (SGC-style construct names; the trailing letter is the construct ID)
Sequence (Q13188 16-313): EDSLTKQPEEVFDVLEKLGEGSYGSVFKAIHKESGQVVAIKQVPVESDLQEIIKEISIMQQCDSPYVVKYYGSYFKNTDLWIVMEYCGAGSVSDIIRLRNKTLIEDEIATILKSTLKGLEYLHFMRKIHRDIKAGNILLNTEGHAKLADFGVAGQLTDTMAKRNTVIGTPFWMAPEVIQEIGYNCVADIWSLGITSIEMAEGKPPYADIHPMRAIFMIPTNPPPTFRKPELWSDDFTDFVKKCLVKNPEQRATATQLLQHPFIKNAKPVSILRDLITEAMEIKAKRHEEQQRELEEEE
assay method text: DSF Tm panel
Type: binding
measurement setup: 10 μM compound
measure name: ΔTm at 10 µM

[
  {
    "smiles code": "O=C(NCc1ccccc1)Nc1ccc2cc1OCCOCCNc1ccn3ncc-2c3n1",
    "measure name": "ΔTm at 10 µM",
    "observed": "5.9 °C"
  },
  {
    "smiles code": "COc1ccc(CNC(=O)Nc2ccc3cc2OCCOCCNc2ccn4ncc-3c4n2)cc1",
    "measure name": "ΔTm at 10 µM",
    "observed": "4.4 °C"
  },
  {
    "smiles code": "O=C(NCc1ccccc1C(F)(F)F)Nc1ccc2cc1OCCOCCNc1ccn3ncc-2c3n1",
    "measure name": "ΔTm at 10 µM",
    "observed": "4.7 °C"
  }
]

###

assay system: TTKA (Homo sapiens, UniProt P33981)
Construct: purchased in-house DSF kinase panel (SGC-style construct names; the trailing letter is the construct ID)
Sequence (P33981 519-808): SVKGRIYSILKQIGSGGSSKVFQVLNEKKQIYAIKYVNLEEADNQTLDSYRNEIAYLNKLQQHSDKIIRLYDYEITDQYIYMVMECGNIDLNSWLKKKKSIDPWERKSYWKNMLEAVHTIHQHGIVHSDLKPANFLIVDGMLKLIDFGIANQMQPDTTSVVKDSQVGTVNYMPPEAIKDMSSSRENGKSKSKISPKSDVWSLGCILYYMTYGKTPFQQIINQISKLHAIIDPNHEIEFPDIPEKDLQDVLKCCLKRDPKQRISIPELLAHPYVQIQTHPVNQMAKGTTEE
assay method text: DSF Tm panel
Format: binding
measurement setup: 10 μM compound

[
  {
    "compound": "COc1ccc(CNC(=O)Nc2ccc3cc2OCCOCCNc2ccn4ncc-3c4n2)cc1F [compound 32]",
    "ΔTm at 10 µM": "2.4 °C"
  },
  {
    "compound": "Cc1cc(Cl)ccc1CNC(=O)Nc1ccc2cc1OCCOCCNc1ccn3ncc-2c3n1 [compound 23]",
    "ΔTm at 10 µM": "1.8 °C"
  },
  {
    "compound": "COc1ccc(CNC(=O)Nc2ccc3cc2OCCOCCNc2ccn4ncc-3c4n2)cc1 [compound 31]",
    "ΔTm at 10 µM": "1.8 °C"
  }
]

###

assay system: NEK7A (Homo sapiens, UniProt Q8TDX7)
Construct: purchased in-house DSF kinase panel (SGC-style construct names; the trailing letter is the construct ID)
Sequence (Q8TDX7 whole entry): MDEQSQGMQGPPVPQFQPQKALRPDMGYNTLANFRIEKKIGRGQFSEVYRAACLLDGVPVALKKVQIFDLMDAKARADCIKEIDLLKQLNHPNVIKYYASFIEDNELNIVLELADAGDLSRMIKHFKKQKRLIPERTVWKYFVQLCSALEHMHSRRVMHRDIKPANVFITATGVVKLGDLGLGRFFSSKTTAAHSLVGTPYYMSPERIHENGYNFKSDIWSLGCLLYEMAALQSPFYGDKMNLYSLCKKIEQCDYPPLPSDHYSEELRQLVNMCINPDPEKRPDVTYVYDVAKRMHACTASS
assay method text: DSF Tm panel
Format: binding
measurement setup: 10 μM compound
measure name: ΔTm at 10 µM (°C)

[
  {
    "smiles code": "O=C(NCc1ccc(C(F)(F)F)cc1)Nc1ccc2cc1OCCOCCNc1ccn3ncc-2c3n1",
    "assay system": "NEK7A (Homo sapiens, UniProt Q8TDX7)",
    "observed": 2.3
  },
  {
    "smiles code": "COc1ccc(CNC(=O)Nc2ccc3cc2OCCOCCNc2ccn4ncc-3c4n2)cc1",
    "assay system": "NEK7A (Homo sapiens, UniProt Q8TDX7)",
    "observed": 0.6
  },
  {
    "smiles code": "O=C(NCc1ccccc1C(F)(F)F)Nc1ccc2cc1OCCOCCNc1ccn3ncc-2c3n1",
    "assay system": "NEK7A (Homo sapiens, UniProt Q8TDX7)",
    "observed": 2
  }
]

###

assay system: UKL3A (ULK3A) (Homo sapiens)
Construct: purchased in-house DSF kinase panel (SGC-style construct names; the trailing letter is the construct ID)
Sequence (Q6PHR2 1-279): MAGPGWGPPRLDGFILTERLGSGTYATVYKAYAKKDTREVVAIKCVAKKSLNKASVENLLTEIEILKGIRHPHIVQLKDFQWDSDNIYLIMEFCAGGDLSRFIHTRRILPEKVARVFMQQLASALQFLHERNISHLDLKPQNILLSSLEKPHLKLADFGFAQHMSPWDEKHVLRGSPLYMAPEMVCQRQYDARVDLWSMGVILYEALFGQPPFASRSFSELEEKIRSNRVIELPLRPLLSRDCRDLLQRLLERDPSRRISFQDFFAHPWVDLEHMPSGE
assay method text: DSF Tm panel
Assay type: binding
measurement setup: 10 μM compound
The following compounds are shown together with reported ΔTm at 10 µM values.
measure name: ΔTm at 10 µM (°C)

[
  {
    "smiles code": "C[C@H](NC(=O)Nc1ccc2cc1OCCOCCNc1ccn3ncc-2c3n1)c1ccccc1",
    "observed": 4.1
  },
  {
    "smiles code": "O=C(NCc1ccc(Cl)cc1F)Nc1ccc2cc1OCCOCCNc1ccn3ncc-2c3n1",
    "observed": 4.6
  },
  {
    "smiles code": "COc1cc(CNC(=O)Nc2ccc3cc2OCCOCCNc2ccn4ncc-3c4n2)ccc1F",
    "observed": 4.5
  },
  {
    "smiles code": "O=C(NCc1ccc(Cl)cc1Cl)Nc1ccc2cc1OCCOCCNc1ccn3ncc-2c3n1",
    "observed": 2.3
  },
  {
    "smiles code": "O=C(NCc1ccccc1C(F)(F)F)Nc1ccc2cc1OCCOCCNc1ccn3ncc-2c3n1",
    "observed": 4.5
  },
  {
    "smiles code": "O=C(NCc1cccc(Cl)c1)Nc1ccc2cc1OCCOCCNc1ccn3ncc-2c3n1",
    "observed": 4.6
  },
  {
    "smiles code": "COc1ccc(CNC(=O)Nc2ccc3cc2OCCOCCNc2ccn4ncc-3c4n2)cc1",
    "observed": 6.1
  },
  {
    "smiles code": "COc1ccc(CNC(=O)Nc2ccc3cc2OCCOCCNc2ccn4ncc-3c4n2)cc1F",
    "observed": 5.9
  },
  {
    "smiles code": "O=C(NCc1ccccc1Cl)Nc1ccc2cc1OCCOCCNc1ccn3ncc-2c3n1",
    "observed": 3.2
  },
  {
    "smiles code": "Cc1ccc(F)cc1CNC(=O)Nc1ccc2cc1OCCOCCNc1ccn3ncc-2c3n1",
    "observed": 3.9
  },
  {
    "smiles code": "COc1ccccc1CNC(=O)Nc1ccc2cc1OCCOCCNc1ccn3ncc-2c3n1",
    "observed": 4.2
  }
]

###

assay system: MAP3K5A (Homo sapiens)
Construct: purchased in-house DSF kinase panel (SGC-style construct names; the trailing letter is the construct ID)
Sequence (Q99683 659-951): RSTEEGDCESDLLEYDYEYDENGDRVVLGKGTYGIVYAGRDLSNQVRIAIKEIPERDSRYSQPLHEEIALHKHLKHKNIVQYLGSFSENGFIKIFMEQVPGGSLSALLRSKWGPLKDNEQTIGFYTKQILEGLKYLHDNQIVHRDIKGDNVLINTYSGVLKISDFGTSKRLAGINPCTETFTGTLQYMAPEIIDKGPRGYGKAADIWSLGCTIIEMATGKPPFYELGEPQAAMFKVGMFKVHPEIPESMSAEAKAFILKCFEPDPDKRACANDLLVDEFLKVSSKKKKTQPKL
assay method text: DSF Tm panel
Assay type: binding
measurement setup: 10 μM compound
Each record is given Y if its reported ΔTm at 10 µM is strictly below 2 °C. Records at or above 2 °C are given N.

[
  {
    "molecule": "O=C(NCc1ccccc1C(F)(F)F)Nc1ccc2cc1OCCOCCNc1ccn3ncc-2c3n1 [compound 27]",
    "label class": "Y"
  },
  {
    "molecule": "COc1ccc(CNC(=O)Nc2ccc3cc2OCCOCCNc2ccn4ncc-3c4n2)cc1 [compound 31]",
    "label class": "Y"
  },
  {
    "molecule": "O=C(NCc1ccc(Cl)cc1F)Nc1ccc2cc1OCCOCCNc1ccn3ncc-2c3n1 [compound 21]",
    "label class": "N"
  },
  {
    "molecule": "CN1CCN(C(=O)Nc2ccc3cc2OCCOCCNc2ccn4ncc-3c4n2)CC1 [compound 35]",
    "label class": "Y"
  },
  {
    "molecule": "COc1ccccc1CNC(=O)Nc1ccc2cc1OCCOCCNc1ccn3ncc-2c3n1 [compound 29]",
    "label class": "Y"
  },
  {
    "molecule": "O=C(NCc1ccc(C(F)(F)F)cc1)Nc1ccc2cc1OCCOCCNc1ccn3ncc-2c3n1 [compound 28]",
    "label class": "N"
  },
  {
    "molecule": "O=C(NCc1ccc(Cl)cc1)Nc1ccc2cc1OCCOCCNc1ccn3ncc-2c3n1 [compound 19]",
    "label class": "Y"
  }
]
